Each item that follows carries a reported pIC50.
# Test system: V79^puro
# experimentDescription: cells
# conditionDetails: Cricetulus griseus, 4 h, read-out: IC50 following 4 h drug exposure
pIC50: −log10 of the molar value.
assayMetric: pIC50

>>> print(df.to_string())
                                   compound  targetdesc  readoutqualifier  measurednumber
0  NC(=O)c1cc(N(CCCl)CCCl)c([N+](=O)[O-])cc1[N+](=O)[O-] [compound 7]    V79^puro                 <            3.30
1  NC(=O)c1cc(N2CC2)c([N+](=O)[O-])cc1[N+](=O)[O-] [compound 1, 5-(aziridin-1-yl)-2,4-dinitrobenzamide, reference compound]    V79^puro                 =            2.53
2  NC(=O)c1cc(N2CC2)c([N+](=O)[O-])cc1N [compound 3]    V79^puro                 =            4.25
3  NC(=O)c1cc(N(CCCl)CCCl)c([N+](=O)[O-])cc1NO [compound 8]    V79^puro                 =            5.76
4  NC(=O)c1cc(N2CC2)c(NO)cc1[N+](=O)[O-] [compound 4]    V79^puro                 =            5.16
5  NC(=O)c1cc(N2CC2)c(N)cc1[N+](=O)[O-] [compound 5]    V79^puro                 =            3.62

* * *

# Test system: UV4
# experimentDescription: cells
# conditionDetails: Cricetulus griseus, UV4, 4 h, read-out: IC50 following 4 h drug exposure
pIC50: −log10 of the molar value.
assayMetric: pIC50

>>> print(df.to_string())
                                   molecule  assaymetric  measurednumber
0     NC(=O)c1cc(N2CC2)c(NO)cc1[N+](=O)[O-]        pIC50            6.21
1     NC(=O)c1cc(N2CC2)c([N+](=O)[O-])cc1NO        pIC50            5.20
2  NC(=O)c1cc(N(CCCl)CCCl)c([N+](=O)[O-])cc1NO        pIC50            7.35
3  NC(=O)c1cc(N2CC2)c([N+](=O)[O-])cc1[N+](=O)[O-] [compound 1, 5-(aziridin-1-yl)-2,4-dinitrobenzamide, reference compound]        pIC50            3.87
4      NC(=O)c1cc(N2CC2)c([N+](=O)[O-])cc1N        pIC50            5.43
5      NC(=O)c1cc(N2CC2)c(N)cc1[N+](=O)[O-]        pIC50            4.33
6  NC(=O)c1cc(N(CCCl)CCCl)c([N+](=O)[O-])cc1[N+](=O)[O-]        pIC50            3.12

* * *

// pIC50 lookup, one value per entry
# Tested on: WiDr
# experimentDescription: cells
# conditionDetails: Homo sapiens, 4 h, read-out: IC50 following 4 h drug exposure
pIC50: −log10 of the molar value.
assayMetric: pIC50

In [3]: df
Out[3]:
                                   compound  readoutqualifier  measurednumber
0      NC(=O)c1cc(N2CC2)c([N+](=O)[O-])cc1N                 =            4.68
1  NC(=O)c1cc(N(CCCl)CCCl)c([N+](=O)[O-])cc1[N+](=O)[O-]                 <            3.00
2  NC(=O)c1cc(N(CCCl)CCCl)c([N+](=O)[O-])cc1NO                 =            5.92
3  NC(=O)c1cc(N2CC2)c([N+](=O)[O-])cc1[N+](=O)[O-] [compound 1, 5-(aziridin-1-yl)-2,4-dinitrobenzamide, reference compound]                 =            3.31
4     NC(=O)c1cc(N2CC2)c(NO)cc1[N+](=O)[O-]                 =            4.59
5      NC(=O)c1cc(N2CC2)c(N)cc1[N+](=O)[O-]                 =            3.85
